Biological target: Casein kinase I isoform gamma-2 (Homo sapiens)
Test: PubChem AID 1671247
Conditions: Z'-LYTE FRET kinase activity assay
Measurement Name: IC50

Field request: IC50 | item: Brc1c(Br)c(Br)c2n[nH]nc2c1Br
26.5 µM
